- EXPERIMENT NOTES: RP, Waters CORTECS T3, 100 × 2.1 mm, 2.7 µm, 0.2 mL/min, estimated dead time 1.1 min; A: water + 0.1% formic acid, pH 3; B: methanol + 0.1% formic acid, pH 3; gradient (min/%B) 0/0 1/0 6/5 30/100 35/100 35.1/0 40/0
- PROTOCOL CONDITIONS: stereoisomer not certain
OBSERVABLE: LC retention time (min)
# value in min; strip the unit string

- COMPOUND: "CCC(NC(=O)CCC(N)C(=O)O)C(=O)NCC(=O)O (centres undefined)"
  LC retention time, min: 1.38
- COMPOUND: "Cc1cc2nc[nH]c2cc1C"
  LC retention time, min: 13.4
- COMPOUND: "Nc1ncnc2c1ncn2[C@@H]1O[C@H](CSCC[C@H]([NH3+])C(=O)[O-])[C@@H](O)[C@H]1O"
  LC retention time, min: 1.34
- COMPOUND: "CCCCCCCCCCCCCCCC(O)C(N)CO (centres undefined)"
  LC retention time, min: 27.4
- COMPOUND: "Nc1nc2nccnc2c(=O)[nH]1"
  LC retention time, min: 4.26

For CN1CCC[C@H]1c1cccnc1 [(S)-NICOTINE] , what is its reported LC retention time?
1.34

What value of LC retention time has been reported for the following compound? "Nc1cccc2ccccc12"
13.5

Could you share which LC retention time value was measured for Cc1cc2nc3c(=O)[nH]c(=O)nc-3n(CC(O)C(O)C(O)CO)c2cc1C (centres undefined) ?
14.7

LC retention time lookup needed for "Cc1cc2nc3[nH]c(=O)[nH]c(=O)c3nc2cc1C" , thanks.
18.3

---

- EXPERIMENT NOTES: RP, Waters CORTECS T3, 100 × 2.1 mm, 2.7 µm, 0.3 mL/min, estimated dead time 0.73 min; A: water + 0.1% formic acid, pH 3; B: methanol + 0.1% formic acid, pH 3; gradient (min/%B) 0/0 1/0 6/5 30/100 35/100 35.1/0 40/0
- PROTOCOL CONDITIONS: stereoisomer not certain
OBSERVABLE: log10 LC retention time (log10 of the value in min)
Scale type: logarithmic (base 10). Underlying LC retention time unit: min.

Solved entries:
- COMPOUND: "CCC(NC(=O)CCC(N)C(=O)O)C(=O)NCC(=O)O (stereo not given) [OPHTHALMIC ACID]"
  log10 LC retention time: -0.02
- COMPOUND: "N[C@@H](Cc1cc(I)c(Oc2ccc(O)cc2)c(I)c1)C(=O)O [3,5-DIIODO-L-THYRONINE]"
  log10 LC retention time: 1.26
- COMPOUND: "O=C(O)CCCCCCCC(=O)O [AZELAIC ACID]"
  log10 LC retention time: 1.23
- COMPOUND: "CC(=O)NCCCC(=O)[O-] [4-ACETAMIDOBUTANOATE]"
  log10 LC retention time: 0.57
- COMPOUND: "O=C(O)c1cc(=O)c2ccccc2[nH]1 [4-HYDROXY-2-QUINOLINECARBOXYLIC ACID]"
  log10 LC retention time: 1.03
- COMPOUND: "Cc1ncc(CO)c(C(=O)O)c1O [4-PYRIDOXATE]"
  log10 LC retention time: 0.66
- COMPOUND: "c1ncc2[nH]cnc2n1 [PURINE]"
  log10 LC retention time: 0.41
- COMPOUND: "Nc1nc2c(ncn2C2OC(COP(=O)(O)O)C(O)C2O)c(=O)[nH]1 (stereo not given) [GUANOSINE 5'-MONOPHOSPHATE]"
  log10 LC retention time: -0.04
- COMPOUND: "O=c1[nH]c(=O)c2[nH]c(=O)[nH]c2[nH]1 [URATE]"
  log10 LC retention time: -0.04

Now look at this one.
Which value of log10 LC retention time has been reported for O=c1[nH]cnc2c1ncn2C1OC(CO)C(O)C1O (stereo not given) [INOSINE] in the records?
0.73

---

Collected LC retention time values appear next to each entry.
- EXPERIMENT NOTES: RP, Waters CORTECS T3, 100 × 2.1 mm, 2.7 µm, 0.3 mL/min, estimated dead time 0.73 min; A: water + 0.1% formic acid, pH 3; B: methanol + 0.1% formic acid, pH 3; gradient (min/%B) 0/5 5/5 25/100 30/100 30.1/5 35/5
- PROTOCOL CONDITIONS: stereoisomer not certain
The response must be a number in min with no trailing unit.

Known results for compounds:
- COMPOUND: "COC(=O)Cc1c[nH]c2ccccc12 [METHYL INDOLE-3-ACETATE]"
  LC retention time [min]: 15.3
- COMPOUND: "Nc1nc2ncc(CNc3ccc(C(=O)NC(CCC(=O)O)C(=O)O)cc3)nc2c(=O)[nH]1 (centres undefined) [FOLIC ACID]"
  LC retention time [min]: 10.5

Give its LC retention time value. Item: CSCC1OC(n2cnc3c(N)ncnc32)C(O)C1O (centres undefined) [5'-METHYLTHIOADENOSINE]
8.5

Could you tell me which LC retention time is on file for O=c1[nH]c(=O)c2[nH]c(=O)[nH]c2[nH]1 [URATE] ?
0.93

Find the recorded LC retention time belonging to O=c1[nH]cnc2nc[nH]c12 [HYPOXANTHINE] and report it.
1.33

Item NC(=O)[C@@H](N)Cc1c[nH]c2ccccc12 [L-TRYPTOPHANAMIDE] has what recorded LC retention time?
4.89

Recorded LC retention time for CC(=O)OCC(=O)C1(O)CCC2C3CCC4=CC(=O)CCC4(C)C3C(O)CC21C (centres undefined) [CORTISOL 21-ACETATE] , please?
18.1

Form field: reported LC retention time of CSc1ncnc2nc[nH]c12 [THIOPURINE S-METHYLETHER]
9.81

For C=Cc1c(C)c2cc3[nH]c(cc4nc(cc5nc(cc1[nH]2)C(C)=C5CCC(=O)O)C(CCC(=O)O)=C4C)c(C)c3C=C [PROTOPORPHYRIN] , what is its reported LC retention time?
25.1

---

- EXPERIMENT NOTES: HILIC, Merck SeQuant ZIC-HILIC, 150 × 2.1 mm, 5 µm, 0.75 mL/min, estimated dead time 0.44 min; A: water + 0.1% acetic acid + 10 mM ammonium acetate, pH 4; B: 5% water + 95% acetonitrile + 0.1% acetic acid + 10 mM ammonium acetate, pH 4; gradient (min/%B) 0/95 5/95 20/57 25/57 30/95 40/95
- PROTOCOL CONDITIONS: stereoisomer not certain
OBSERVABLE: log10 LC retention time (log10 of the value in min)
// units: min (pre-log); metric: LC retention time; scale: log10

- MOLECULE: "O=C(O)c1cc(=O)c2cccc(O)c2[nH]1"
  log10 LC retention time: 0.99
- MOLECULE: "O=C(O)C(O)c1ccc(O)c(O)c1 (stereo not given) [DIHYDROXYMANDELIC ACID]"
  log10 LC retention time: 0.64
- MOLECULE: "Nc1nc2c(ncn2C2OC3COP(=O)(O)OC3C2O)c(=O)[nH]1 (stereo not given) [GUANOSINE 3',5'-CYCLIC MONOPHOSPHATE]"
  log10 LC retention time: 1.09
- MOLECULE: "N[C@@H](CS(=O)(=O)O)C(=O)O"
  log10 LC retention time: 1.13

# input molecule: COC1OC(CO)C(O)C(O)C1O [METHYL BETA-D-GALACTOSIDE] ; wanted: its log10 LC retention time
0.70

# lookup: log10 LC retention time of Nc1ncnc2c1ncn2C1CC(O)C(COP(=O)(O)O)O1 (stereo not given)
1.11

Which log10 LC retention time reading was recorded for the molecule O=c1[nH]c(=O)c2nccnc2[nH]1 [2,4-DIHYDROXYPTERIDINE] ?
0.16

# get_value(readout='log10 LC retention time', item= O=C(O)C1(O)CC(O)C(O)C(O)C1 (stereo not given) [QUINATE] )
1.09

Record request: log10 LC retention time value, item "CC(=O)N[C@@H](Cc1ccccc1)C(=O)O"
0.75

Which log10 LC retention time value is on record for Cn1cnc2c(ncn2C2OC(CO)C(O)C2O)c1=N (stereo not given) ?
0.18

Can you look up the measured log10 LC retention time of CC(=O)NC(CCC(=O)O)C(=O)O (racemic) for me?
1.13

May I ask what log10 LC retention time has been recorded for NC(C(=O)O)C(O)C(O)C(O)CO (stereo not given) [GLUCOSAMINATE] ?
1.15

log10 LC retention time lookup needed for NC(C=O)C(O)C(O)C(O)COS(=O)(=O)O [D-GLUCOSAMINE 6-SULFATE] , thanks.
1.18

Could you tell me which log10 LC retention time is on file for CCC(NC(=O)CCC(N)C(=O)O)C(=O)NCC(=O)O (stereo not given) ?
1.14

// returns reported log10 LC retention time for input Nc1nc2c(ncn2C2OC(CO)C(O)C2O)c(=O)[nH]1 (stereo not given)
1.00

For O=C(O)c1ccc2ccccc2c1[O-] [1-HYDROXY-2-NAPHTHOATE] , what is its reported log10 LC retention time?
0.10

Which log10 LC retention time is listed for O=c1[nH]c(=O)c2[nH]c(=O)[nH]c2[nH]1 [URATE] ?
1.06

Return reported log10 LC retention time; argument: O=c1[nH]cnc2c1ncn2C1OC(CO)C(O)C1O (stereo not given)
0.93

Fill in: log10 LC retention time of O=c1ccn(C2OC(COP(=O)(O)O)C(O)C2O)c(=O)[nH]1 (stereo not given) [URIDINE-5-MONOPHOSPHATE] is ___
1.13

Entry under review: "O=c1[nH]c(=O)c2[nH]cnc2[nH]1" . Reported log10 LC retention time?
0.76

Values were extracted from the RepoRT retention time repository (doi:10.1016/j.jchromb.2020.122105).
